experimental.target: SERCA2a (Canis lupus familiaris, UniProt O46674)
Construct: pre-incubated with 2 μg of microsomes; from tissue; host or cells: dog heart left ventricle, SR microsomes
Sequence (O46674 whole entry): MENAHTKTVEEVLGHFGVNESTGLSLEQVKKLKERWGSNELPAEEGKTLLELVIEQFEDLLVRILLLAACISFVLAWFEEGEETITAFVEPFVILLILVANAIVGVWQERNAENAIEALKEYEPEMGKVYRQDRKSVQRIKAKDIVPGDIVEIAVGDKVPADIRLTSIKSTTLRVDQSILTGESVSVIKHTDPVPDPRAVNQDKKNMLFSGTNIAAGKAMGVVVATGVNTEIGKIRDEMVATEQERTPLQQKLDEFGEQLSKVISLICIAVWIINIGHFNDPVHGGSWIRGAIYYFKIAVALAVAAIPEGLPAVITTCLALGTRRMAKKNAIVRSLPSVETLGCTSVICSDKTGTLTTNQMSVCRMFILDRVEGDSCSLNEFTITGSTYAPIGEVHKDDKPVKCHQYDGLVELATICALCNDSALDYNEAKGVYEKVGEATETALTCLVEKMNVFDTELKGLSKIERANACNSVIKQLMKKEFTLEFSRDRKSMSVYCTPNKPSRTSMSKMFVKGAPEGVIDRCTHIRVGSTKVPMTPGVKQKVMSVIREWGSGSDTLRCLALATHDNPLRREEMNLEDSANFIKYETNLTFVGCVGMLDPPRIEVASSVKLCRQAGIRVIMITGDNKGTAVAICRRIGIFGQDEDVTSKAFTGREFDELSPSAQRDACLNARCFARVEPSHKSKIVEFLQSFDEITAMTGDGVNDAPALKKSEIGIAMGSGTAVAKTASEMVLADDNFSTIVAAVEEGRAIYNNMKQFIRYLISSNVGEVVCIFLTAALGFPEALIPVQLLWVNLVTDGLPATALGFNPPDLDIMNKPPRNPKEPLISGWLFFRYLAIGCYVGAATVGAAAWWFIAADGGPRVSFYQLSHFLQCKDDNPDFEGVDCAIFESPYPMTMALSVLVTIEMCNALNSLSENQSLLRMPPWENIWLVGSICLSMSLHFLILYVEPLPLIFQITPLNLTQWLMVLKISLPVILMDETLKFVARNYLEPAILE
test.method.notes: SERCA2a ATPase activity in heart-derived SR microsomes from normal dog
Assay type: biochemical
setup.conditions: compound 1 nM; mean ± SD
observed.property: Vmax (SERCA2a ATPase activity)

>>> print(df.to_string())
                                   compound                         observed_result
0  C[C@]12CC[C@H](O)C[C@H]1CCC1C2CC[C@]2(C)[C@@H](CCc3cc(CCCN)on3)CC[C@]12O (some centres unmarked)   2.94 ± 0.306 (n = 3) μmol/min/mg prot
1  C[C@]12CC[C@H](O)C[C@H]1CCC1C2CC[C@]2(C)[C@@H](c3cn(CCCN)cn3)CC[C@]12O (some centres unmarked)  3.113 ± 0.157 (n = 3) μmol/min/mg prot
2  C[C@]12CC[C@H](O)C[C@H]1CCC1C2CC[C@]2(C)[C@@H](/C=C/c3cc(CN)on3)CC[C@]12O (some centres unmarked)  2.924 ± 0.549 (n = 3) μmol/min/mg prot
3  C[C@]12[C@H](O)CC3C(CC[C@@H]4C[C@@H](O)CC[C@]34C)[C@@]1(O)CC[C@@H]2c1c[nH]cn1 (some centres unmarked)  1.437 ± 0.158 (n = 4) μmol/min/mg prot
4  C[C@]12CC[C@H](O)C[C@H]1CCC1C2CC[C@]2(C)[C@@H](c3csc(N=C(N)N)n3)CC[C@]12O (some centres unmarked)  2.949 ± 0.321 (n = 6) μmol/min/mg prot
